Test system: HCC-2998 colon
Experiment: NCI tumour cell line growth inhibition, 48 h
# TGI annotations
MEASURED_ATTRIBUTE: TGI

>>> meas_value("CC(=O)NC1=N/C(=C\\c2ccc(Cl)cc2)C(=O)N1/C=C1\\C(=O)Oc2ccccc2C1=O")
"> 100 µM"
>>> meas_value("CCOC(=O)[C@H](C)OC(=O)[C@@](C)(NC(=O)c1ccccc1C(=O)OC)[C@@H]1NC=C(C(=O)OC)CS1")
"> 100 µM"
>>> meas_value("CC(Oc1ccc(OCC2CCCCC2)cc1)C(=O)OCC(=O)c1ccc(-c2ccccc2)cc1 (centres undefined)")
"> 100 µM"
>>> meas_value("Cc1cccc2c1Sc1ccccc1C2NC(=O)CCN(C)C (centres undefined)")
"> 100 µM"
>>> meas_value("COc1cccc2nc3c(C(=O)NCCN(C)C)cccc3cc12")
"12.3 µM"
>>> meas_value("C[C@]12CCC(=O)C=C1CC[C@@H]1C2CC[C@]2(C)Nc3[nH]ncc3CC12 (some centres undefined)")
"> 100 µM"
>>> meas_value("C=CCc1ccc(O)c(-c2ccc(O)c(CC=C)c2)c1")
"36.5 µM"
>>> meas_value("CC1OC(OC2C(OC(=O)[C@]34CCC(C)(C)C[C@H]3C3=CC[C@@H]5[C@@]6(C)CC[C@H](OC7OC(CO)C(O)C(O)C7OC7OC(CO)C(O)C(O)C7O)C(C)(C)[C@@H]6CC[C@@]5(C)[C@]3(C)CC4)OCC(O)C2O)C(O)C(OC2OCC(O)C(O)C2O)C1OC1OCC(O)C(OC2OCC(O)C(O)C2O)C1O (some centres undefined)")
"4.38 µM"
>>> meas_value("O=C(/C=C/C=C/c1ccccc1)c1ccccc1")
"31.7 µM"
>>> meas_value("O=S(=O)(c1ccccc1)N1N=C2c3ccccc3CCC[C@H]2C1c1ccccc1 (some centres undefined)")
"> 100 µM"
>>> meas_value("C=CCN1CCC23c4c5ccc(O)c4OC2C(=NN=C2CCC4(O)C6Cc7ccc(O)c8c7C4(CCN6CC=C)C2O8)CCC3(O)C1C5 (centres undefined)")
"43.2 µM"
>>> meas_value("CS/C(=C(\\S)c1ccccc1)c1ccccc1")
"> 100 µM"
>>> meas_value("CS(=O)(=O)c1ccc(-c2cc(-c3ccc(S(C)(=O)=O)cc3)[n+](-c3cc(-c4ccccc4)c([O-])c(-c4ccccc4)c3)c(-c3ccc(S(C)(=O)=O)cc3)c2)cc1")
"> 100 µM"
>>> meas_value("O=C(NNC(=O)c1ccccc1O)c1cccc(Br)c1")
"> 100 µM"
